EXPERIMENTAL_CONTEXT: in isopropanol, 303.15 K
MEASURE_NAME: solubility (mole fraction)

# SMILES_RECORD, OBS_VALUE
rows = [
    ("CC1=NNC(=O)N(/N=C/c2cccnc2)C1", 0.000461),
]

----------
EXPERIMENTAL_CONTEXT: in NMP, 283.15 K
MEASURE_NAME: solubility (mole fraction)

# SMILES_RECORD, OBS_VALUE
rows = [
    ("CC1=NNC(=O)N(/N=C/c2cccnc2)C1", 0.00189),
]

----------
EXPERIMENTAL_CONTEXT: in NMP, 278.15 K
MEASURE_NAME: solubility (mole fraction)

# SMILES_RECORD, OBS_VALUE
rows = [
    ("CC1=NNC(=O)N(/N=C/c2cccnc2)C1", 0.00163),
]
